- Tested on: IMR-32
- Assay method text: In vitro cytotoxicity against human cancerous neuroblastoma cells (IMR-32)
- Type: functional, cell-based
- Reported conditions: imr-32
Provide the reported IC50 of each item.

Fill in IC50 for each of the 3 compounds listed.
1. COc1cc(C2C(OC(C)=O)C(=O)N2c2ccc3c(c2)OCO3)cc(OC)c1OC (stereo not given)
2. COc1cc(N2C(=O)C(O)C2c2ccc3c(c2)OCO3)cc(OC)c1OC (stereo not given)
3. COc1ccc(C2C(O)C(=O)N2c2cc(OC)c(OC)c(OC)c2)cc1[N+](=O)[O-] (stereo not given)

1: > 10000 nM; 2: 445 nM; 3: 41.4 nM

The following compounds each have a reported value; give each one's IC50.
1. COc1ccc(C2C(OC)C(=O)N2c2cc(OC)c(OC)c(OC)c2)cc1[N+](=O)[O-] (stereo not given)
2. COc1ccc(C2C(O)C(=O)N2c2cc(OC)c(OC)c(OC)c2)cc1N (stereo not given)

> 10000 nM
38.3 nM

====

Please respond with reported pIC50 for every item in the list.
- Tested on: NCI-H460
- Assay method text: In vitro cytotoxicity against human lung carcinoma (NCI-H460) tumor cell line
- Format: functional, cell-based
Give bare numbers, as −log10 of the molar value.

// known answers, use as guide
>>> df
                                   compound  measured_on  reported_endpoint  measured_result
0  COc1ccc(C2C(OC(C)=O)C(=O)N2c2cc(OC)c(OC)c(OC)c2)cc1N (configuration not stated)     NCI-H460              pIC50             6.35
1  COc1ccc(C2C(OC(C)=O)C(=O)N2c2cc(OC)c(OC)c(OC)c2)cc1[N+](=O)[O-] (configuration not stated)     NCI-H460              pIC50             6.41

# batch: return pIC50 for each of the 3 compounds below
1. COc1ccc(C2C(O)C(=O)N2c2cc(OC)c(OC)c(OC)c2)cc1N (configuration not stated)
2. COc1ccc(C2C(O)C(=O)N2c2cc(OC)c(OC)c(OC)c2)cc1[N+](=O)[O-] (configuration not stated)
3. COc1cc(N2C(=O)C(O)C2c2ccc3c(c2)OCO3)cc(OC)c1OC (configuration not stated)

6.73
6.37
5.84

====

- Test system: CHO-K1
- Assay method text: In vitro cytotoxicity against chinese hamster ovary (CHO-K1) tumor cell line
- Format: functional, cell-based, Cricetulus griseus
- Reported conditions: Cricetulus griseus, CHO-K1
Reported endpoint: IC50

                                   molecule  reported_endpoint  measured_result
0  COc1ccc(C2C(O)C(=O)N2c2cc(OC)c(OC)c(OC)c2)cc1N (stereo not drawn)               IC50           544 nM
1  COc1ccc(C2C(OC(C)=O)C(=O)N2c2cc(OC)c(OC)c(OC)c2)cc1N (stereo not drawn)               IC50           462 nM
2  COc1cc(C2C(OC(C)=O)C(=O)N2c2ccc3c(c2)OCO3)cc(OC)c1OC (stereo not drawn)               IC50       > 10000 nM
3  COc1ccc(C2C(O)C(=O)N2c2cc(OC)c(OC)c(OC)c2)cc1 (stereo not drawn)               IC50           509 nM
4  COc1cc(N2C(=O)C(O)C2c2ccc3c(c2)OCO3)cc(OC)c1OC (stereo not drawn)               IC50           891 nM

Please state IC50 for every molecule in the list that follows.
1. COc1ccc(C2C(OC(C)=O)C(=O)N2c2cc(OC)c(OC)c(OC)c2)cc1[N+](=O)[O-] (stereo not drawn)
2. COc1ccc(C2C(OC)C(=O)N2c2cc(OC)c(OC)c(OC)c2)cc1[N+](=O)[O-] (stereo not drawn)
3. COc1ccc(C2C(O)C(=O)N2c2cc(OC)c(OC)c(OC)c2)cc1[N+](=O)[O-] (stereo not drawn)

1. 473 nM
2. > 10000 nM
3. 236 nM

Source listed as ChEMBL document CHEMBL1147534.
